Could you please report measured TGI for the items listed next?
system: UO-31 renal; assay: NCI tumour cell line growth inhibition, 48 h

// for each molecule below, give its TGI
1. COc1ccc(-c2cc(-c3ccc(Nc4ccnc5cc(C(F)(F)F)ccc45)cc3)[nH]c(=O)c2C#N)c2ccccc12
2. O=C1c2ccccc2S(=O)(=O)N1CSC(=S)N1CCCC1
3. Cc1nc2c(nc1C)-c1c(c3c(n1Cc1ccccc1)C(=O)CCC3)C(=O)C2=O
4. COc1c2ccccc2c(O)c2c(=O)c(C(=O)O)cn(C)c12
5. O=C(O)Cc1ccc(N2N=C(c3ccccc3)CC2=O)cc1
6. CC(C)(C)OC(=O)NCCCCCCCCn1c2c(c3ccccc3c1=O)C(=O)c1ccccc1-2

output:
1: > 65.9 µM; 2: > 100 µM; 3: 4.07 µM; 4: > 100 µM; 5: > 100 µM; 6: > 50 µM

* * *

test system: BT-549 breast; assay: NCI tumour cell line growth inhibition, 48 h
readoutKind: TGI

1) Cc1nc2c(nc1C)-c1c(c3c(n1Cc1ccccc1)C(=O)CCC3)C(=O)C2=O; 5.84 µM
2) N#CC1C(=O)Nc2sc(C(=O)c3ccc(Br)cc3)c(N)c2C12CCCCC2 (centres undefined); > 100 µM

// for each molecule below, give its TGI
1. C=C1CC/C=C(/C(=O)O)CC[C@H]2[C@@H]1CC2(C)C
2. CCCCCCCCCCCCCCCCCCNc1ccn(C2OC(COP(=O)(O)O)C(O)C2O)c(=O)n1 (centres undefined)
3. CS(=O)(=O)N1CCN(Cc2cc3nc(-c4cccc5[nH]ncc45)nc(N4CCOCC4)c3s2)CC1 (tested in a mixture with another compound)
4. COc1ccc(CNc2nc(NCc3ccc(OC)cc3)nc(Nc3ccccc3)n2)cc1

output:
1. > 100 µM
2. > 100 µM
3. 0.102 µM
4. > 100 µM

// for each molecule below, give its TGI
1. NC(=O)c1[nH]nc(C2OC(CO)C(O)C2O)c1O (centres undefined)
2. COC(=O)[C@]12CC[C@@H](C)[C@H](C)[C@@H]1C1=CC[C@@H]3[C@@]4(C)C(C=O)=C[C@@](C)(COC(C)=O)[C@@H]4[C@H](O)C[C@@]3(C)[C@]1(C)CC2

output:
1. 1160 µM
2. 5.11 µM

// for each molecule below, give its TGI
1. CCC(=O)OCc1ccc2oc(=O)c(C(=O)Oc3cncc(Cl)c3)cc2c1
2. Cc1cccc(-c2cc(=O)c3ccc(C)nc3[nH]2)c1

output:
["> 100 µM", "> 100 µM"]

// for each molecule below, give its TGI
1. Oc1cc(Cl)cc2cc(Br)cnc12
2. CCCCn1c2c(c3ccccc3c1=O)C(=O)c1ccccc1-2
3. CO/N=C1\CCC2(O)C3Cc4ccc(O)c5c4C2(CCN3CC2CC2)[C@H]1O5 (some centres undefined)
4. O=C1c2cccnc2-c2nc(/C=C/c3ccccc3)cc3c2c1nc1ccccc13

output:
1. > 100 µM
2. > 100 µM
3. > 100 µM
4. 17.3 µM

* * *

system: HCT-15 colon; assay: NCI tumour cell line growth inhibition, 48 h
readoutKind: TGI

# annotated cases, reported TGI shown
1. NCCNCC(O)CO (stereo unspecified); > 100 µM
2. CCc1cccc(CC)c1NC(=S)NC(=O)c1ccc(Br)cc1; > 78.4 µM
3. Cc1ccc(-c2ccc(Nc3c4ccccc4nc4ccccc34)cc2)cn1; 17.2 µM
4. COc1ccc(/C=C(/C(=O)N2CCCC2)c2cc(OC)c(OC)c(OC)c2)cc1N; > 100 µM
5. C=C1C(=O)O[C@H]2[C@H]1CC/C(COC(=O)C(=O)c1c[nH]c3ccc(OC)cc13)=C\CC[C@@]1(C)O[C@@H]21; 7.82 µM
6. OCCSCCCSCCO; > 100 µM
7. CC(C)(C)c1cc(-c2ccc(-c3cc(C(C)(C)C)c(O)c(C(C)(C)C)c3)cc2)cc(C(C)(C)C)c1O; > 100 µM
8. CC(=O)O[C@H]1[C@@H]2[C@@H]3[C@@H](C[C@H]1C)[C@@H](C)CO[C@@]1(C)CC/C=C(/C)C[C@@H]2O[C@@H]31; > 100 µM

// for each molecule below, give its TGI
1. Cc1ccc(C(=O)CC(Cl)=C(Cl)Cl)cc1
2. CCOC(=O)c1c(C)n(Cc2ccccc2)c2c1cc(O)c1[nH]c3c(c12)CCCC3
3. C/C=C(\C)C(=O)O[C@@H]1C(O)[C@H]2OC(COC(=O)CCC(=O)CCCCCC[C@H](CCCCC)O[C@@H]3OC(C)[C@H](OC(C)=O)C(O)[C@H]3O2)[C@H]1OC(=O)/C=C/c1ccccc1 (stereo partly specified)
4. COc1cc2c3c(n(CCCN)c(=O)c2cc1OC)-c1ccc(F)cc1C3=O
5. Cc1cc(=O)oc2cc(OC(=O)Nc3ccc(Cl)c(Cl)c3)ccc12
6. COC(=O)[C@]12CC[C@@H](C)[C@H](C)[C@@H]1C1=CC[C@@H]3[C@@]4(C)C(C=O)=C[C@@](C)(COC(C)=O)[C@@H]4[C@H](O)C[C@@]3(C)[C@]1(C)CC2
7. OC(c1cccs1)c1cc2ccccc2s1 (stereo unspecified)
8. Cc1nc2c(nc1C)-c1c(c3c(n1Cc1ccccc1)C(=O)CCC3)C(=O)C2=O

output:
> 100 µM
13.9 µM
> 100 µM
6.89 µM
> 100 µM
3.06 µM
> 10 µM
> 100 µM

// for each molecule below, give its TGI
1. N#C/C(=C/c1cccnc1)C(=O)c1ccccc1
2. CC1C=C(OC(=O)c2ccccc2)C(=O)C(n2cc(F)c(=O)n(C(=O)c3ccccc3)c2=O)O1 (stereo unspecified)
3. COC(=O)c1ccccc1NC(=O)C(=O)CC(=O)c1ccccc1NC1=CC(=O)C(=O)c2ccccc21
4. C=C(CNCCc1ccc(O)cc1)[C@@H]1CC[C@]2(CO)CC[C@]3(C)[C@H](CC[C@@H]4[C@@]5(C)CCC(=O)C(C)(C)[C@@H]5CC[C@]43C)[C@@H]12

output:
> 100 µM
> 100 µM
34.1 µM
2.89 µM
